All figures here come from the supplement of paper PMC11208160.

experiment: recombinant UMI read abundance after kanamycin selection (control-corrected) (log10(CPM+1)); higher = more efficient recombination; extreme values may be limits of the assay; sequences stand for … in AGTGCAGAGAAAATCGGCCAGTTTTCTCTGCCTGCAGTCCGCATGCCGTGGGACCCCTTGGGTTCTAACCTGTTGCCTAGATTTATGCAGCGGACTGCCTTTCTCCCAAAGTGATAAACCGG…AGGTTGGTTTCACT; site = the 11-nt donor
metric_name: recombinant UMI read abundance (log10)
Reply briefly: the number, and no unit.

Solved entries:
AGCCTTGCATGGACCGGTTTTCCCGGTAATCCGTATTTGTT (site AGCCTCGCTAA)
0.0115
TCAGAGACATGGACCGGTTTTCCCGGTAATCCGTATTTGCG (site TCAGCGACTCG)
0.00351
TGCTCATCATGGACCGGTTTTCCCGGTAATCCGTATTTGCT (site TGCTCATCTAG)
1.08
GGTCCGACATGGACCGGTTTTCCCGGTAATCCGTATTTGTA (site GGTCCTACTTA)
0.0182
GACTCATCATGGACCGGTTTTCCCGGTAATCCGTATTTGCC (site GACTCATCTGG)
2.65
AAGGAATCATGGACCGGTTTTCCCGGTAATCCGTATTTGCG (site GAGGAATCTCG)
2.74
CGGATTCCATGGACCGGTTTTCCCGGTAATCCGTATTTGCT (site CGGAATCCTAA)
0
AACGCCGCATGGACCGGTTTTCCCGGTAATCCGTATTTGTC (site AACGCCGCTGA)
2.24

Now turn to the next sequence.
// sample ACGATAGCATGGACCGGTTTTCCCGGTAATCCGTATTTGTC (site ACGATAGCTGA) , its recombinant UMI read abundance (log10) was 2.92

====

test: recombinant UMI read abundance after kanamycin selection (control-corrected) (log10(CPM+1)); higher = more efficient recombination; extreme values may be limits of the assay; sequences stand for … in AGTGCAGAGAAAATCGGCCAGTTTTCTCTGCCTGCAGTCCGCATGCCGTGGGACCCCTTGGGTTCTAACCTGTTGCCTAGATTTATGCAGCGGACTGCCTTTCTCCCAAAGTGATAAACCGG…AGGTTGGTTTCACT; site = the 11-nt donor
Respond with yes for recombinant UMI read abundance (log10) values of 0.007 and above, no for values below.

Here are 3 sequences together with their reported answers.
TTGGCGGCATGGACCGGTTTTCCCGGTAATCCGTATTTGCT (site TTCGCGGCTAG)
no
CTGCCATCATGGACCGGTTTTCCCGGTAATCCGTATTTGGT (site CTGCCATCTAC)
no
TAGGACTCATGGACCGGTTTTCCCGGTAATCCGTATTTGCG (site TAGGACTCTCG)
yes

[Q] Check this sequence for recombinant UMI read abundance (log10) at or above 0.007: CAGTGGACATGGACCGGTTTTCCCGGTAATCCGTATTTGGG (site CAGTGGACTCC)
[A] yes

[Q] Check this sequence for recombinant UMI read abundance (log10) at or above 0.007: TACGGAACATGGACCGGTTTTCCCGGTAATCCGTATTTGCA (site TACGGAACTTG)
[A] yes

[Q] Check this sequence for recombinant UMI read abundance (log10) at or above 0.007: ACCATATCATGGACCGGTTTTCCCGGTAATCCGTATTTGCA (site ACAGTATCTTG)
[A] yes

====

// reported recombinant barcode read abundance (log10) per item
assay: recombinant barcode read abundance after kanamycin selection (control-corrected) (log10(CPM+1)); higher = more efficient recombination; sequences stand for … in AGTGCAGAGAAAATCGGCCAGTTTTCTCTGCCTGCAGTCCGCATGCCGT…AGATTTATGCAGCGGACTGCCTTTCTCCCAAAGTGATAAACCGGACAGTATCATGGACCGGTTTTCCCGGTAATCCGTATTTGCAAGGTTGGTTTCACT; site = the 11-nt target

GGGGCGGCTTGGGTTCTAACCTGTTGCCT (site GGGGCGTCTAG)
0.242

Now turn to the next sequence.
// sample TAGCATGCTTGGGTTCTAACCTGTTGCAA (site TAGCATGCTGT) , its recombinant barcode read abundance (log10) was 0.115

====

assay: recombinant barcode read abundance after kanamycin selection (control-corrected) (log10(CPM+1)); higher = more efficient recombination; sequences stand for … in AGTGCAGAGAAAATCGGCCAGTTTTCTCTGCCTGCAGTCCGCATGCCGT…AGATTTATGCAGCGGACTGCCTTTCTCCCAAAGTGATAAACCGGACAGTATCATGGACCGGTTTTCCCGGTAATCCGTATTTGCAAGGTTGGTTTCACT; site = the 11-nt target
Respond with fulfilled for recombinant barcode read abundance (log10) values of 0.1 and above, not fulfilled for values below.

Here are 4 sequences together with their reported answers.
GACTTTCCTTGGGTTCTAACCTGTTGCAT (site GACTTACCTAT)
not fulfilled
TGCGCCTCTTGGGTTCTAACCTGTTGCTG (site TACGCCTCTTA)
fulfilled
TATCAGACTTGGGTTCTAACCTGTTGCAG (site TCTCAGGCTCT)
fulfilled
GAGAGGTCTTGGGTTCTAACCTGTTGCCT (site GAGAGGTCTAG)
fulfilled

Now let's try a different one.
[Q] Check this sequence for recombinant barcode read abundance (log10) at or above 0.1: CATCCTACTTGGGTTCTAACCTGTTGCCG (site CATCCTACTAT)
[A] not fulfilled

====

assay: recombinant UMI read abundance after kanamycin selection (control-corrected) (log10(CPM+1)); higher = more efficient recombination; extreme values may be limits of the assay; sequences stand for … in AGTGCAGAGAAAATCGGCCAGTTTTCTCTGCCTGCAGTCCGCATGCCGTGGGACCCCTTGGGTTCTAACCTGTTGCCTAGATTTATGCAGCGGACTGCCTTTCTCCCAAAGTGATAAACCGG…AGGTTGGTTTCACT; site = the 11-nt donor
// reported recombinant UMI read abundance (log10) per item
Reply briefly: the number, and no unit.

// sample ATTGAGACATGGACCGGTTTTCCCGGTAATCCGTATTTGGT (site ATTGAGACTGC) , its recombinant UMI read abundance (log10) was 0.953

// sample ATGTAAGCATGGACCGGTTTTCCCGGTAATCCGTATTTGGC (site ATGTACGCTGC) , its recombinant UMI read abundance (log10) was 0.982

====

assay: recombinant UMI read abundance after kanamycin selection (control-corrected) (log10(CPM+1)); higher = more efficient recombination; extreme values may be limits of the assay; sequences stand for … in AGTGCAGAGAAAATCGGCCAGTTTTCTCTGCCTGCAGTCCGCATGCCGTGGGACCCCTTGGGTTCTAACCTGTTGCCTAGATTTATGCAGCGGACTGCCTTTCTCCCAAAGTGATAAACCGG…AGGTTGGTTTCACT; site = the 11-nt donor
Respond with 1 for recombinant UMI read abundance (log10) values of 2 and above, -1 for values below.

Here are 5 sequences together with their reported answers.
GTGAGAACATGGACCGGTTTTCCCGGTAATCCGTATTTGGC (site GTCAGAACTGC)
-1
GGAGTCGCATGGACCGGTTTTCCCGGTAATCCGTATTTGGT (site GGAGTTGCTAC)
-1
CAGCCTTCATGGACCGGTTTTCCCGGTAATCCGTATTTGTG (site CAGCCTTCTCA)
-1
CCCAAGTCATGGACCGGTTTTCCCGGTAATCCGTATTTGGG (site CCCAAGTCTCC)
1
CGAGCATCATGGACCGGTTTTCCCGGTAATCCGTATTTGCA (site CGAGCATCTTG)
1

[Q] Check this sequence for recombinant UMI read abundance (log10) at or above 2: AGCTCAGCATGGACCGGTTTTCCCGGTAATCCGTATTTGGT (site AGCTCAGCTGC)
[A] -1

[Q] Check this sequence for recombinant UMI read abundance (log10) at or above 2: CGGACATCATGGACCGGTTTTCCCGGTAATCCGTATTTGCG (site CGGACATCTCG)
[A] 1

[Q] Check this sequence for recombinant UMI read abundance (log10) at or above 2: TGTACACCATGGACCGGTTTTCCCGGTAATCCGTATTTGAT (site TGTACACCTGT)
[A] -1

[Q] Check this sequence for recombinant UMI read abundance (log10) at or above 2: CTAGTATCATGGACCGGTTTTCCCGGTAATCCGTATTTGAT (site CTAGTATCTAT)
[A] 1

[Q] Check this sequence for recombinant UMI read abundance (log10) at or above 2: CCAGAGACATGGACCGGTTTTCCCGGTAATCCGTATTTGCG (site CCAGAGACTCG)
[A] -1

====

test: recombinant barcode read abundance after kanamycin selection (control-corrected) (log10(CPM+1)); higher = more efficient recombination; sequences stand for … in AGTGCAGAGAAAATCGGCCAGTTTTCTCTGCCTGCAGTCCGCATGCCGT…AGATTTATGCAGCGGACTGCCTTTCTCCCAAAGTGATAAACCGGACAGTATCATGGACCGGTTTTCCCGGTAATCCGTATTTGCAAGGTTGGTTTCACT; site = the 11-nt target
metric_name: recombinant barcode read abundance (log10)
Reply briefly: the number, and no unit.

Solved entries:
AGCGAGGCTTGGGTTCTAACCTGTTGCCT (site AGCGAAGCTAG)
0.0233
GTATTAGCTTGGGTTCTAACCTGTTGCCG (site GTATTAGCTCG)
1.44
CTATGACCTTGGGTTCTAACCTGTTGCTT (site CTATGACCTAT)
0.394

// sample ACATTGTCTTGGGTTCTAACCTGTTGCGG (site ACAGTGTCTCC) , its recombinant barcode read abundance (log10) was 0.00595
